Target: Retinoic acid receptor RXR-alpha (Homo sapiens)
Test: qHTS assay for small molecule antagonists of retinoid X receptor alpha signaling (AID 588546);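 further: cells stimulated with 9-cis-retinoic acid as agonist; on the % scale 0 is the no-effect control and ±100 the full control effect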
Conditions: HEK293T RXRa-UAS-bla, beta-lactamase ratio, antagonist mode
Results filed as inconclusive are left out. Activity calls are given as the source filed them. The call rests on the fitted dose curve; in most records, active means well fitted inhibition curve with a large enough effect in the signal ratio, with a control signal flat (not every such curve was filed as active); inconclusive means small, poorly fitted or top-dose-only effect, or effect the other way, or a change in a side signal; inactive means no such curve, though single readings can be large or run the other way; the % refers to the signal ratio.
observed_property: max response

Take a look at these entries with their results.
{"structure_string": "Cl[Si](Cl)(c1ccccc1)c1ccccc1", "observed_property": "max response", "result": "-0.846% (inactive)"}
{"structure_string": "C=CCCCCCCCCC=O", "observed_property": "max response", "result": "-16.9% (inactive)"}
{"structure_string": "CNc1nc(=O)n(C2CCCCC2)c(=O)n1C", "observed_property": "max response", "result": "4.07% (inactive)"}

From here, focus on the item given below.
Short answer please: max response, Retinoic acid receptor RXR-alpha (Homo sapiens), entry "CCCCCCCCCCCCCO"
3.57% (inactive)
